Field IC50: reported value for Epidermal growth factor receptor (Homo sapiens, UniProt P00533); entries drawn from several documents.

1. C=CC(=O)Nc1cc(-c2c(-c3cnn(CC)c3)[nH]c3ncc(C(=O)OC(C)C)c(C)c23)ccc1C	≤ 50 nM
2. N#Cc1cnc2ccc(NC(=O)C#CCO)cc2c1Nc1cccc(Br)c1	8 nM
3. CN(C)CC#CC(=O)Nc1ccc2ncc(C#N)c(Nc3cccc(Br)c3)c2c1	0.1 nM
4. N#Cc1cnc2ccc(NC(=O)C#CCN3CCOCC3)cc2c1Nc1cccc(Br)c1	2 nM
5. C=CC(=O)Nc1cc(-c2c(-c3cnn(CCN(C)C)c3)[nH]c3ncc(C(=O)OC(C)C)c(C)c23)ccc1C	≤ 50 nM

Requested field: IC50. Item: C=CC(=O)Nc1cc(-c2c(-c3cnn(CCO)c3)[nH]c3ncc(C(=O)OC(C)C)c(C)c23)ccc1C
≤ 50 nM

Requested field: IC50. Item: C=CC(=O)Nc1cc(-c2c(-c3cnn(C)c3)[nH]c3ncc(-c4cn(C)nc4C)cc23)ccc1C
≤ 50 nM

Requested field: IC50. Item: C=CC(=O)Nc1cc(-c2c(-c3ccc(N4CCN(C)CC4)cc3)[nH]c3ncc(-c4cnn(C)c4)cc23)ccc1C
≤ 50 nM

Requested field: IC50. Item: C=CC(=O)Nc1cc(-c2c(-c3cnn(Cc4ccccc4)c3)[nH]c3ncc(C(=O)OC(C)C)c(C)c23)ccc1C
≤ 50 nM

Requested field: IC50. Item: C=CC(=O)Nc1cc(-c2c(-c3cnn(CCN4CCOCC4)c3)[nH]c3ncc(C(=O)OC(C)C)c(C)c23)ccc1C
≤ 50 nM

Requested field: IC50. Item: C=C(C)C(=O)Nc1ccc2ncc(C#N)c(Nc3cccc(Br)c3)c2c1
7 nM

Requested field: IC50. Item: C=CC(=O)Nc1cc(-c2c(-c3cnn(CC)c3)[nH]c3ncc(C(=O)OC(C)C)cc23)ccc1C
≤ 50 nM

Requested field: IC50. Item: C=CC(=O)Nc1cc(-c2c(-c3cn(C)cn3)[nH]c3ncc(C(=O)OC(C)C)c(C)c23)ccc1C
≤ 50 nM

Requested field: IC50. Item: C=CC(=O)Nc1cc(-c2c(-c3ccc(N4CCN(C)CC4)cc3)[nH]c3ncc(-c4cnn(C)c4C)cc23)ccc1C
≤ 50 nM

Requested field: IC50. Item: C=CC(=O)Nc1cc(-c2c(-c3cnn(C)c3)[nH]c3ncc(-c4ccnn4C)cc23)ccc1C
≤ 50 nM
